Each item that follows carries a reported CC50.
- System: H-MEC-1
- experimentSummary: Inhibition of cells growth by colorimetric assay (SRB), H-MEC-1
- Type: cell-based
- studyConditions: Homo sapiens, HMEC-1; H-MEC-1, 48 hours exposure, SRB; read-out: LC50 (the source's name)
Reply with just the number (in µM).

C=CCOC(=O)Oc1c(C)c2c(c3c1[C@H]1SC[C@]4(NCCc5c4[nH]c4ccccc54)C(=O)COC[C@@H]3N3C1[C@H]1c4c(cc(C)c(OC)c4O)C[C@@H]([C@@H]3O)N1C)OCO2 (some centres unmarked)
12.5
C=COC(=O)Oc1c(C)c2c(c3c1[C@H]1SC[C@]4(NCCc5c4[nH]c4ccccc54)C(=O)COC[C@@H]3N3C1[C@H]1c4c(cc(C)c(OC)c4O)C[C@@H]([C@@H]3C#N)N1C)OCO2 (some centres unmarked)
12.6
CCCC(=O)Oc1c(C)c2c(c3c1[C@H]1SC[C@]4(NCCc5c4[nH]c4ccccc54)C(=O)COC[C@@H]3N3C1[C@H]1c4c(cc(C)c(OC)c4O)C[C@@H]([C@@H]3O)N1C)OCO2 (some centres unmarked)
12.8
COc1c(C)cc2c(c1O)[C@@H]1C3[C@@H]4SC[C@]5(NCCc6c5[nH]c5ccccc65)C(=O)COC[C@@H](c5c6c(c(C)c(OC(=O)OC(C)(C)C)c54)OCO6)N3[C@@H](O)[C@H](C2)N1C (some centres unmarked)
12.3

Next, consider the following molecule.
So for C=COC(=O)Oc1c(C)c2c(c3c1[C@H]1SC[C@]4(NCCc5c4[nH]c4ccccc54)C(=O)COC[C@@H]3N3C1[C@H]1c4c(cc(C)c(OC)c4O)C[C@@H]([C@@H]3O)N1C)OCO2 (some centres unmarked) , the logged CC50 turned out to be 12.8
